Examples of compounds with documented IC50 follow.
Target: Avi-KRAS G12V (2-169) GTP/RAF1 RBD-3xFLAG (51-131) (Homo sapiens, UniProt P01116, G12V)
Construct: Avi-KRAS G12V (2-169)
Sequence (P01116 2-169 isoform P01116-2 G12V): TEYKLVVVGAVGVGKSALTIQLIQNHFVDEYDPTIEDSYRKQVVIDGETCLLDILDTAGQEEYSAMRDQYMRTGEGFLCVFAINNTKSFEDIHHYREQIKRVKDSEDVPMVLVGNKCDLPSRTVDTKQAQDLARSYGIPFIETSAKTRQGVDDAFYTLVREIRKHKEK
Test: Raf1-KRAS G12V-GTP disruption HTRF assay (Biological Example 3)
Assay type: binding
Details: KRAS G12V, GTP-loaded

Sample answers from the record:
- Compound: "CCN(c1nc(OC[C@@]23CCCN2C[C@H](F)C3)nc2c(F)c(-c3ccc(F)c4sc(N)c(C#N)c34)c(C(F)(F)F)cc12)[C@H]1CCN(C(=O)OC2CC(OC)C2)[C@@H]1C (some centres unmarked)"
  IC50: "100 to 1000 nM"
- Compound: "CC(=O)N1CC(N(C)c2nc(OCC34CCCN3CC(F)C4)nc3c(F)c(-c4ccc(F)c5sc(N)c(C#N)c45)c(C(F)(F)F)cc23)CC1C (centres unmarked)"
  IC50: "100 to 1000 nM"
- Compound: "CCN(c1nc(OC[C@@]23CCCN2C[C@H](F)C3)nc2c(F)c(-c3ccc(F)c4sc(N)c(C#N)c34)c(C(F)(F)F)cc12)[C@H]1CCN(C(=O)c2cccs2)C1 (atropisomer, axis not shown)"
  IC50: "100 to 1000 nM"
- Compound: "CCN(c1nc(OC[C@@]23CCCN2C[C@H](F)C3)nc2c(F)c(-c3ccc(F)c4sc(N)c(C#N)c34)c(C(F)(F)F)cc12)[C@H]1C[C@H](C)N(C(=O)C2C[C@@H]2F)C1 (some centres unmarked)"
  IC50: "≤ 100 nM"

Consider the record given below.
*Q* Missing value: IC50, Avi-KRAS G12V (2-169) GTP/RAF1 RBD-3xFLAG (51-131) (Homo sapiens, UniProt P01116, G12V), entry CN(Cc1cocn1)c1nc(OC[C@@]23CCCN2C[C@H](F)C3)nc2c(F)c(-c3ccc(F)c4sc(N)c(C#N)c34)c(C(F)(F)F)cc12 (atropisomer, axis not shown) . Fill in?
*A* 100 to 1000 nM

====

Target: Avi-KRAS WT (1-169) GppNHp/RAF1 RBD-3xFLAG (52-151) (Homo sapiens, UniProt P01116)
Construct: Avi-KRAS WT (1-169)
Sequence (P01116 1-169 isoform P01116-2): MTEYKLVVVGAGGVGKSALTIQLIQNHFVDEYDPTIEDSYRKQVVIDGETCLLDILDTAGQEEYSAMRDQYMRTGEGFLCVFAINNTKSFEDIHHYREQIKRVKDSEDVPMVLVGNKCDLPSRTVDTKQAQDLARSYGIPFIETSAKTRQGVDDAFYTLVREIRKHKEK
Assay: Raf1-KRAS WT-GppNHP disruption HTRF assay (Biological Example 1)
Format: binding
Details: KRAS WT, GppNHp-loaded; class symbols
pIC50: −log10 of the molar value.
# Lookup of reported pIC50 keyed by entry

Some entries whose results are on file:
- Compound: "CCN(c1nc(OCC23CCCN2CC(F)C3)nc2c(F)c(-c3ccc(F)c4sc(N)c(C#N)c34)c(C(F)(F)F)cc12)C1CCN(C(=O)c2ncon2)C1 (stereo not drawn) [Compound 754]"
  Measurement target: "Avi-KRAS WT (1-169) GppNHp/RAF1 RBD-3xFLAG (52-151) (Homo sapiens, UniProt P01116)"
  Value kind: "pIC50"
  Experimental result: "6.00 to 7.00"
- Compound: "CCN(c1nc(OC[C@@]23CCCN2C[C@H](F)C3)nc2c(F)c(-c3ccc(F)c4sc(N)c(C#N)c34)c(C(F)(F)F)cc12)[C@H]1CCN(C(=O)c2cn(C)nn2)C1 (atropisomer, axis not shown) [Compound 725]"
  Measurement target: "Avi-KRAS WT (1-169) GppNHp/RAF1 RBD-3xFLAG (52-151) (Homo sapiens, UniProt P01116)"
  Value kind: "pIC50"
  Experimental result: "> 7.00"
- Compound: "C=C(C)C(=O)N1CC[C@@H](N(C)c2nc(OC[C@@]34CCCN3C[C@H](F)C4)nc3c(F)c(-c4ccc(F)c5sc(N)c(C#N)c45)c(C(F)(F)F)cc23)[C@H]1C [Compound 671]"
  Measurement target: "Avi-KRAS WT (1-169) GppNHp/RAF1 RBD-3xFLAG (52-151) (Homo sapiens, UniProt P01116)"
  Value kind: "pIC50"
  Experimental result: "6.00 to 7.00"
- Compound: "CCN(c1nc(OC[C@@]23CCCN2C[C@H](F)C3)nc2c(F)c(-c3ccc(F)c4sc(N)c(C#N)c34)c(C(F)(F)F)cc12)[C@@H]1C[C@H](C)N(C(=O)C2CC2)C1 (atropisomer, axis not shown) [Compound 588]"
  Measurement target: "Avi-KRAS WT (1-169) GppNHp/RAF1 RBD-3xFLAG (52-151) (Homo sapiens, UniProt P01116)"
  Value kind: "pIC50"
  Experimental result: "6.00 to 7.00"
- Compound: "CCN1CC[C@H](N(CC)c2nc(OC[C@@]34CCCN3C[C@H](F)C4)nc3c(F)c(-c4ccc(F)c5sc(N)c(C#N)c45)c(C(F)(F)F)cc23)C1=O (atropisomer, axis not shown) [Compound 694]"
  Measurement target: "Avi-KRAS WT (1-169) GppNHp/RAF1 RBD-3xFLAG (52-151) (Homo sapiens, UniProt P01116)"
  Value kind: "pIC50"
  Experimental result: "6.00 to 7.00"

*Q* Report pIC50 for CCN(c1nc(OC[C@@]23CCCN2C[C@H](F)C3)nc2c(F)c(-c3ccc(F)c4sc(N)c(C#N)c34)c(C(F)(F)F)cc12)[C@H]1CCN(C(=O)[C@H]2CCO2)[C@@H]1C (atropisomer, axis not shown) [Compound 805] tested on Avi-KRAS WT (1-169) GppNHp/RAF1 RBD-3xFLAG (52-151) (Homo sapiens, UniProt P01116).
*A* > 7.00

*Q* Return pIC50 measured with Avi-KRAS WT (1-169) GppNHp/RAF1 RBD-3xFLAG (52-151) (Homo sapiens, UniProt P01116) given this compound: CCN(c1nc(OC[C@@]23CCCN2C[C@H](F)C3)nc2c(F)c(-c3ccc(F)c4sc(N)c(C#N)c34)c(C(F)(F)F)cc12)[C@@H]1CCN(C(=O)[C@H]2CCO2)[C@@H]1C (atropisomer, axis not shown) [Compound 788]
*A* > 7.00

*Q* pIC50 of CC[C@H](C)C(=O)N1CC[C@H](N(CC)c2nc(OC[C@@]34CCCN3C[C@H](F)C4)nc3c(F)c(-c4ccc(F)c5sc(N)c(C#N)c45)c(C(F)(F)F)cc23)C1 (atropisomer, axis not shown) [Compound 576] on Avi-KRAS WT (1-169) GppNHp/RAF1 RBD-3xFLAG (52-151) (Homo sapiens, UniProt P01116)?
*A* > 7.00

*Q* Request: pIC50, test system Avi-KRAS WT (1-169) GppNHp/RAF1 RBD-3xFLAG (52-151) (Homo sapiens, UniProt P01116), entry C/C=C/C(=O)N1CC[C@@H](N(C)c2nc(OC[C@@]34CCCN3C[C@H](F)C4)nc3c(F)c(-c4ccc(F)c5sc(N)c(C#N)c45)c(C(F)(F)F)cc23)[C@H]1C [Compound 670]
*A* 6.00 to 7.00

Every entry's value here was drawn from patent US20260042764A1.
